Each entry below carries its recorded melting point.

COMPOUND | ASSAY_VALUE
O=Cc1ccc(Sc2nc3cc(F)c(F)cc3[nH]2)o1 | 133 °C
Oc1cc(-c2c3ccccc3c(Br)c3sc4ccccc4c23)cc(Br)c1O | 212 to 213 °C
CSc1ccc(C2=C(c3ccc(F)cc3C)CCC2)cc1 | 67 to 68 °C
CCOC(=O)c1cc2n(n1)CCOC2 | 63 °C

**Query** // lookup melting point for CCCCCC(CC(=O)O)c1cc(C(=O)CC)c(OC)cc1OC (stereo unspecified)
**Result** 92.5 to 94 °C

**Query** // lookup melting point for CC(=O)NC1CCN(c2ccc(Cl)cn2)CC1
**Result** 196 to 198 °C

**Query** // lookup melting point for CC(C)Nc1cccnc1N1CCN(C(=O)c2ccc(C(=O)NCCOCCO)cc2)CC1
**Result** 116 °C

**Query** // lookup melting point for CCOC(=O)c1cc2n(c1)CNc1ccc(Br)cc1-2
**Result** 169 to 171 °C

====

MEASUREMENT_LABEL: melting point (°C)

COMPOUND | melting point [°C]
CCN(CC)C(=O)c1c(C(C)(O)c2cc3cnccc3n2S(=O)(=O)c2ccccc2)ccnc1OC (centres undefined) | 236
CN1CCN(c2cc3c(cc2F)c(=O)c(C(=O)O)cn3Cc2ccccc2)CC1 | 266

====

Each entry below carries its recorded melting point.

Solved entries (count: 7):
MOLECULE | melting point
O=C(O)Cc1c(-c2ccccc2)[nH]c2nccnc12 | 276 to 277 °C
COCCOc1cc(N)c(Cl)cc1C(=O)O | 119 to 120 °C
CCNC1(c2ccccc2Cl)C(=O)N(Cc2ccc(C(=O)NC(C)(CO)CO)cc2)c2ccc(Cl)cc21 (stereo not drawn) | 138 to 141 °C
COc1ccc2nc(Sc3ccc4c(c3)CC[C@H]3N(C)C(=O)CC[C@]43C)sc2c1 | 102 to 107 °C
COc1ccc(C2(C#Cc3cccc(-c4nc(C)no4)c3)CCCC(=O)C2)cc1OC1CCCC1 (stereo not drawn) | 122 to 123 °C
COC(=O)C(C)NC(=O)C1CCCN1C(=O)OCc1ccccc1 (stereo not drawn) | 45 to 49 °C
Nc1sc2c(c1C(=O)c1ccc3c(c1)OCO3)CCN(C(=O)c1ccccc1)C2 | 211 to 212 °C

**Query** // lookup melting point for N#CC(C#N)=CNc1cc(C(F)(F)F)ccc1Cl
**Result** 166 to 169 °C

====

Each entry below carries its recorded melting point.

Solved entries (count: 2):
SMILES_STRING | ASSAY_VALUE
COC(=O)c1c(S(C)(=O)=O)ccc(C(=O)O)c1C | 113 to 118 °C
C=CCNC(=O)N1CC(Oc2ccc(C(F)(F)F)cc2Cl)C1 | 102 to 104 °C

**Query** // lookup melting point for COc1ccc(C(=O)Nc2c(-c3cc(Cl)ccc3O)c3cc(C(F)(F)F)ccc3[nH]c2=O)cc1
**Result** 285 to 287 °C

====

MEASUREMENT_LABEL: melting point

MOLECULE | melting point
COc1ccc(C=CC(=O)c2c(OC)cc(OC)cc2OP(=O)(O)O)cc1 | 71 to 73 °C
COC(=O)c1cccc([N+](=O)[O-])c1Cl | 68 to 70 °C
Cc1c(NC(=O)c2ccc(-c3ccc(F)cc3)cc2F)ccc2cc(CN3CCCCC3)cnc12 | 186 to 187 °C
CC#CCOc1ccc(S(=O)(=O)C2(C(=O)NO)CCOCC2)cc1 | 210 °C
CC(C)(C)c1ncc2cc(Cl)nc(Cl)n12 | 109 to 110 °C

**Query** // lookup melting point for COC(=O)Cc1cc(=O)[nH]c2ccccc12
**Result** 209 to 210 °C

**Query** // lookup melting point for Nc1c(-c2ccc(I)cc2)nc2ccc(Cl)cc2c1C(=O)O
**Result** 243 to 245 °C

**Query** // lookup melting point for Cc1cc(C)c(C)c(-c2cc3cnc(NCCCN4CCN(C)CC4)nc3nc2NC(=O)NC(C)(C)C)c1C
**Result** 185 to 198 °C

**Query** // lookup melting point for CC(=O)NC(C)c1ccc(CN2CCN(c3ccc(F)cc3)CC2)cc1 (configuration not stated)
**Result** 101 to 103 °C

**Query** // lookup melting point for CC(=O)C(=Cc1cccnc1)C(C)=O
**Result** 52 to 57 °C

**Query** // lookup melting point for CSc1ncccc1NC(=O)CCCCCCCCSc1nc2ccccc2s1
**Result** 107 to 108 °C

====

MEASUREMENT_LABEL: melting point

Solved entries (count: 3):
COMPOUND | MEASUREMENT_LABEL | ASSAY_VALUE
N#Cc1ccc(N2C(=N)C3(CCCC3)NC2=O)cc1C(F)(F)F | melting point | 212 to 213 °C
CC1(C)OC(c2ccc(S(N)(=O)=O)cc2)=C(c2ccc3c(c2)OCO3)C1=O | melting point | 178 to 179 °C
CC(C)N1C(=O)N=C(SCc2ccccc2)NS1(=O)=O | melting point | 124 to 130 °C

**Query** // lookup melting point for CC(C)(C)C(O)Cn1ncn(-c2ccc(N3CCN(c4ccc(O[Si](C)(C)C(C)(C)C)cc4)CC3)cc2)c1=O (configuration not stated)
**Result** 196 °C

**Query** // lookup melting point for COc1ccc(C(=O)Nc2ccc3ccc(Cl)nc3n2)cc1OC
**Result** 196 °C

**Query** // lookup melting point for COc1ccc(Cc2oc3c(c2C)C(=O)C(C)=C(C)C3=O)cc1
**Result** 111 to 113 °C

**Query** // lookup melting point for CCC(CC)C(c1ccnn1-c1ccccc1)N(C)S(=O)(=O)c1ccc(Cl)cc1 (configuration not stated)
**Result** 86.5 to 89 °C

**Query** // lookup melting point for CCOC(=O)c1c[nH]c2nc(Nc3ccc(C)c(Cl)c3)nn2c1=O
**Result** > 340 °C

**Query** // lookup melting point for O=Cc1nccn1Cc1cn(-c2ccc(Cl)c(Cl)c2)cn1
**Result** 130 to 131 °C

**Query** // lookup melting point for O=C(CN1C(=O)c2ccccc2C1=O)NCc1nncn1-c1ccc(Cl)cc1C(=O)c1ccccc1
**Result** 214 to 215 °C

**Query** // lookup melting point for CCC(=O)SCC(CC(=O)c1ccc(Br)cc1)C(=O)O (configuration not stated)
**Result** 122 to 123 °C

**Query** // lookup melting point for Nc1c(N=O)c(=O)n(C2CC2)c(=O)n1C1CC1
**Result** 230 °C

====

Each entry below carries its recorded melting point.

**Query** // lookup melting point for c1ccc(-c2c3ccccc3nc3ccccc23)nc1
**Result** 192 to 205 °C

**Query** // lookup melting point for CC(C)(C)OC(=O)NC[C@H]1CN(c2ccc3c(c2)CC(C(C)(C)C)N3)C(=O)O1 (stereo not given in full)
**Result** 153 to 160 °C

**Query** // lookup melting point for Cc1oncc1C(=O)c1ccccc1[N+](=O)[O-]
**Result** 104 to 106 °C

**Query** // lookup melting point for Cc1nc(-c2ccc(Cl)cc2)nn1CCC=O
**Result** 108 to 109 °C

**Query** // lookup melting point for CC1(c2ccc(-c3ccc(Cl)cc3)cc2)CC(=O)NN1 (stereo not given)
**Result** 214 to 215 °C

**Query** // lookup melting point for Cc1cc(C2=NOC(c3cc(Cl)cc(Cl)c3)(C(F)(F)F)C2)ccc1Br (stereo not given)
**Result** 105 to 108 °C

**Query** // lookup melting point for O=C(O)c1cccc(C(=O)c2cc(Cl)cc(C(=O)c3ccccc3O)c2O)c1O
**Result** 127 to 130 °C

**Query** // lookup melting point for Cc1ccc(C(O)(Cc2nnnn2C)c2ccc(C)cc2C)c(C)c1
**Result** 175 to 177 °C

**Query** // lookup melting point for O=C(O)C(=NO)c1cccs1
**Result** 132 °C

====

Each entry below carries its recorded melting point.

Solved entries (count: 6):
COMPOUND | ASSAY_VALUE
Clc1ccc(C2(Cn3ccnc3)OCC(COc3ccc(N4CCN(c5ccc(-n6cnnn6)cc5)CC4)cc3)O2)c(Cl)c1 (stereo not drawn) | 201 °C
N#Cc1cc(C(=O)NNC(=O)c2occc2-c2cccc(OCCc3ccccc3)c2)ccc1O | 131 to 134 °C
CC1CCN(CCCC(=O)c2ccc3oc4ccc(C(=O)CCCN5CCC(C)CC5)cc4c3c2)CC1 | 72 to 73 °C
Cc1ccc(-n2ncc(-c3ccc(S(C)(=O)=O)cc3)cc2=O)cc1 | 190 to 192 °C
COc1c(C#N)cc([N+](=O)[O-])cc1C#N | 144 to 148 °C
CC(C)(C)c1ccc(N2CCOCC2)c(NP(=O)(O)O)c1 | 79 to 83 °C

**Query** // lookup melting point for CCCCN(CCCC)c1ccc(C=CC=CC2=C(C#N)C(=C(C#N)C#N)OC2(C)C(F)(F)F)c(OC)c1 (stereo not drawn)
**Result** 169 to 170 °C

**Query** // lookup melting point for COc1ccc(Cn2c(=O)n([C@H]3CC[C@H](O)CC3)c3ccc(C(F)(F)F)cc32)cc1OC
**Result** 108 to 110 °C
